system: T1, IL-1beta (UniProt P01584 117-269)
T1 construct: also called IL-1β
experiment notes: Biacore
assay readout: fold difference in affinity vs parental (fold)
Enter your answer as a number in fold; do not include the unit.

binder	uom	observed result
XPA23 Fab, heavy chain P53K (Fab, V domains shown) VH: EVQLLESGGGLVQPGGSLRLSCAASGFTFSKYFMFWVRQAPGKGLEWVSVISKSGGMTRYADSVKGRFTISRDNSKNTLYLQMNSLRAEDTAVYYCARVGYGGNSDYWGQGTLVTVSS VL: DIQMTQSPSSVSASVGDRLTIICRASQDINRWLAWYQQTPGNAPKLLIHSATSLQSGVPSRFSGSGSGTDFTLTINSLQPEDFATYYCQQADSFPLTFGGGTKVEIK	fold	0.04

For record XPA23 Fab, heavy chain S30R (Fab, V domains shown) VH: EVQLLESGGGLVQPGGSLRLSCAASGFTFRKYFMFWVRQAPGKGLEWVSVISPSGGMTRYADSVKGRFTISRDNSKNTLYLQMNSLRAEDTAVYYCARVGYGGNSDYWGQGTLVTVSS VL: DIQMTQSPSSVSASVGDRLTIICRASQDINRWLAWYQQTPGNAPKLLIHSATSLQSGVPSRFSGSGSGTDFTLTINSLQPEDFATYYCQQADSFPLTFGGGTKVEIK the listed fold difference in affinity vs parental is 0.1

For record XPA23 Fab, heavy chain S54E (Fab, V domains shown) VH: EVQLLESGGGLVQPGGSLRLSCAASGFTFSKYFMFWVRQAPGKGLEWVSVISPEGGMTRYADSVKGRFTISRDNSKNTLYLQMNSLRAEDTAVYYCARVGYGGNSDYWGQGTLVTVSS VL: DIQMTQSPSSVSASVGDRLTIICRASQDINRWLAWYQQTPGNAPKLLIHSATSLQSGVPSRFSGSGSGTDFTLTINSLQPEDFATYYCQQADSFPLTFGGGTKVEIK the listed fold difference in affinity vs parental is 0.03
